test system: Shay ulcer; assay: Shay ulcer-inhibiting effect, method of H. Shay et al.; assay type: in vivo; settings: po, rat
Structures can show the parent of a compound that is named as a salt.
OBSERVED PROPERTY: ED50 (mg/kg)
Numbers only, in mg/kg.

See these solved cases before continuing.
1) O=C(CNC1CC1)Nc1nc(-c2cccnc2)cs1 = 40
2) CC[N+](C)(CC)CCOC(=O)C1c2ccccc2Oc2ccccc21 [Methantheline, reference compound] = 15.2
3) Cc1sc(NC(=O)CNC2CC2)nc1-c1cccnc1 [Example 31, dihydrochloride] = 50

Could you now consider this next compound?
Endpoint output: ED50 of CCCCCCNCC(=O)Nc1nc(-c2cccnc2)cs1 [Example 27, dihydrochloride] . Value?
50
